# experimental-target: His-GST-TVMV-hRIPK1(1-324) (Homo sapiens)
# Construct: The coding region of human RIPK1(1-324) flanked by NdeI site at 5′ end; made in house; host or cells: Spodoptera frugiperda Sf9 insect cells (baculovirus, Bac-to-Bac)
# Sequence (Q13546 1-324): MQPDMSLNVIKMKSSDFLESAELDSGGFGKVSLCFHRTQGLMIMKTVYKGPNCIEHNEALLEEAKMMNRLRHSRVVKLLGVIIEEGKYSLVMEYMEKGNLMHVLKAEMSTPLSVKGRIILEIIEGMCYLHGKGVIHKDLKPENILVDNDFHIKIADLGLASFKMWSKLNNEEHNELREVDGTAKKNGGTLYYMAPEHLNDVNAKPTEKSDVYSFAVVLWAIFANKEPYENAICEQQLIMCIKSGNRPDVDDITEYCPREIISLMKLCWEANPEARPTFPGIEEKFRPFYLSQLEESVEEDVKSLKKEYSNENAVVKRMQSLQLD
# experiment-notes: biochemical
# Assay type: binding
# measurement-conditions: Table 22, compounds of the present invention; read-out: RPIK1 IC50
Listed here are compounds together with their documented pIC50.
Field pIC50 (float): negative decimal logarithm of the concentration in molar.

compound="Cc1cc(F)c(-c2ccn3nc(N)nc3c2)cc1C(=O)NCCC(O)c1ccc(F)cc1 (single isomer, unassigned) [Example 9]" experimental_target="His-GST-TVMV-hRIPK1(1-324) (Homo sapiens)" experimental_value=8.21

Problem: Recorded pIC50 for Cc1ccc(-c2ccn3nc(N)nc3c2)cc1C(=O)NCC[C@@H](O)c1ccc(Cl)cc1 with His-GST-TVMV-hRIPK1(1-324) (Homo sapiens), please?
Result: 8.60

Problem: Recorded pIC50 for COc1ccc(-c2ccn3nc(N)nc3c2)c(F)c1C(=O)NCC[C@H](O)c1ccc(Cl)cc1 with His-GST-TVMV-hRIPK1(1-324) (Homo sapiens), please?
Result: 8.03

Problem: Recorded pIC50 for Cc1ccc(-c2ccn3nc(N)nc3c2)c(F)c1C(=O)NCC[C@@H](O)c1ccc(Cl)cc1 with His-GST-TVMV-hRIPK1(1-324) (Homo sapiens), please?
Result: 8.64
